Source listed as the supplement of paper PMC10724198.

# System: Saccharomyces cerevisiae
# Experiment description: protein stability index of tFT-peptide fusion (C-terminal peptide) (PSI (0-1 scale)); higher = more stable (slower turnover)
# Measurement conditions: genetic background: wild type; temperature: 37 C
Label false if protein stability index falls below 0.4; label true in every other case.

Answered examples (8):
>>> discrete_label("GALWVLGVVVGG")
"true"
>>> discrete_label("FVVFYFFLLFGV")
"true"
>>> discrete_label("FTRLDYKRIKIV")
"false"
>>> discrete_label("RFIYYCVDVFFS")
"false"
>>> discrete_label("PPLLLFLSLAFL")
"true"
>>> discrete_label("VRYCFFWVRAVV")
"false"
>>> discrete_label("LLLFLHSTLTCR")
"true"
>>> discrete_label("RGSRLVPRLLRP")
"true"

[in] Is protein stability index for `VCAFCLFFVPLP` at or above 0.4?
[out] true

[in] # check: protein stability index of `RSIVFRVSRRLN` is greater than or equal to 0.4
[out] false

[in] Could you please find out whether `SVRGGSFLVHLC` has protein stability index that meets 0.4 or exceeds it?
[out] false

----------
# Test system: Saccharomyces cerevisiae
# Experiment description: protein stability index of tFT-peptide fusion (C-terminal peptide) (PSI (0-1 scale)); higher = more stable (slower turnover)
# Measurement conditions: genetic background: cdc53-1; temperature: 37 C
Reported metric: protein stability index
// response body must contain only the number

// known answers, use as guide
>>> observed_measurement("RTKIKKKIMKNI")
0.718
>>> observed_measurement("GGRHYGILDLSL")
0.708
>>> observed_measurement("PLLVVPVPRALY")
0.72
>>> observed_measurement("PPPLPPPSPSRP")
0.707
>>> observed_measurement("GVAFGLLVWLLG")
0.509

Then this sequence:
[in] Return reported protein stability index; argument: `TCVVCSCVLQCV`
[out] 0.491

----------
# System: Saccharomyces cerevisiae
# Experiment description: protein stability index of tFT-peptide fusion (C-terminal peptide) (PSI (0-1 scale)); higher = more stable (slower turnover)
# Measurement conditions: genetic background: das1 deletion; temperature: 30 C
Item-by-item account of protein stability index
Respond using a number only.

>>> observed_measurement("SQSKIKAKIRPE [YJL193W C-terminal 12 aa]")
0.713

[in] Given RTSPIDNVSNTH [NUT2 C-terminal 12 aa] , state its recorded protein stability index.
[out] 0.693

[in] protein stability index for ESISYLFKNYPL [PRS3 C-terminal 12 aa] ?
[out] 0.717

[in] Which protein stability index is reported for this sequence? RKLLERSNKFHI [PET127 C-terminal 12 aa]
[out] 0.689

[in] So what's the measured protein stability index for this one? GKDITDQPCIDL [SSP2 C-terminal 12 aa]
[out] 0.705

[in] For the sequence shown here, SRIELELKNIGL [ECM29 C-terminal 12 aa] , give the reported protein stability index.
[out] 0.684

[in] Fill blank: measured protein stability index of the sequence KLYKNSDFNSEK [RRG7 C-terminal 12 aa] is ____.
[out] 0.7

[in] // lookup protein stability index for LVASNFFYAETK [TFS1 C-terminal 12 aa]
[out] 0.707

[in] protein stability index for RTKGQKWFDGLM [NAT2 C-terminal 12 aa] ?
[out] 0.682

[in] Fill blank: measured protein stability index of the sequence FTHFTSSKDRKD [SIT1 C-terminal 12 aa] is ____.
[out] 0.711

[in] Data request, read-out protein stability index, for KQKEAWYSFLFK [SCO1 C-terminal 12 aa]
[out] 0.714
